The reported numbers originate from ChEMBL document CHEMBL1961873.

Target: Tyrosine-protein kinase Lyn (Homo sapiens) (UniProt P07948);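 also: mean inhibition of the LYN B splice variant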
Sequence (P07948 2-512 limits assumed): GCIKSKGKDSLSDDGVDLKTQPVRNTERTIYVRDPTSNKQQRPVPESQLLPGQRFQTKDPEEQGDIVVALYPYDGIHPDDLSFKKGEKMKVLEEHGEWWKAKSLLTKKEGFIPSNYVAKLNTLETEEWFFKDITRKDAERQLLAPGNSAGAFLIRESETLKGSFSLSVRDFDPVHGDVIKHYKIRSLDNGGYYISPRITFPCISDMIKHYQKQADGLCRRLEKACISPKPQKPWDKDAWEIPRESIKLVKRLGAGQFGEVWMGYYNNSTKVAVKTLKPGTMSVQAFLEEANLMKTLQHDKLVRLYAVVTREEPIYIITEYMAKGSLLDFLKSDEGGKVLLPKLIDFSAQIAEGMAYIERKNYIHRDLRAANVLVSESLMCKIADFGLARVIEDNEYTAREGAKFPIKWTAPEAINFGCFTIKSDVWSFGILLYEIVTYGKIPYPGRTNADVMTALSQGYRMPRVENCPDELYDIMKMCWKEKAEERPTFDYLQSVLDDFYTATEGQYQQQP
Details: at 0.1 µM
Description: GSK_PKIS: LYN B (splice variant) mean inhibition at 0.1 uM [Nanosyn]
Label MET for high-side inhibition (at or above 3%) and NOT MET for low-side inhibition (below it).

Use these answered entries as a reference point.
INSERT INTO measurements (compound, classification) VALUES
  ('O=C1NC(=O)C(c2cccc(Cl)c2)=C1Nc1ccc(O)c(Cl)c1', 'NOT MET'),
  ('Cc1ccc(NC(=O)c2ccnc(N3CCCC3)c2)cc1-c1ccc(C(=O)NCC2CC2)cc1', 'NOT MET'),
  ('CCn1c(-c2nonc2N)nc2c(N3CCCC3)nccc21', 'NOT MET'),
  ('CS(=O)(=O)CCN(CC#N)Cc1ccc(-c2ccc3ncnc(Nc4ccc(OCc5cccc(F)c5)c(Cl)c4)c3c2)o1', 'NOT MET');

**Query** hey, is inhibition for this one >= 3%? COc1ccc(-c2ccncc2)cc1C(N)=O
**Result** NOT MET

**Query** Is inhibition at least 3%? Consider COc1cc(C)c(NC(=O)CN(C)C)cc1Nc1nc(Nc2cccc(F)c2C(N)=O)c2cc[nH]c2n1
**Result** NOT MET

**Query** Reported inhibition at or above 3%? Cc1cc(O)cc(C)c1/C=C/c1cncc(-c2nn[nH]n2)c1
**Result** MET

**Query** Exam item: decide whether the reported inhibition for COc1ccc2cc(-c3c(-c4ccncc4)nc(-c4ccc([S+](C)[O-])cc4)n3C)ccc2c1 (stereo not given) is at least 3%.
**Result** NOT MET
